# subjectOfTest: VLA-4 (Homo sapiens, UniProt P05556+P13612)
# Sequence (P13612 34-1032): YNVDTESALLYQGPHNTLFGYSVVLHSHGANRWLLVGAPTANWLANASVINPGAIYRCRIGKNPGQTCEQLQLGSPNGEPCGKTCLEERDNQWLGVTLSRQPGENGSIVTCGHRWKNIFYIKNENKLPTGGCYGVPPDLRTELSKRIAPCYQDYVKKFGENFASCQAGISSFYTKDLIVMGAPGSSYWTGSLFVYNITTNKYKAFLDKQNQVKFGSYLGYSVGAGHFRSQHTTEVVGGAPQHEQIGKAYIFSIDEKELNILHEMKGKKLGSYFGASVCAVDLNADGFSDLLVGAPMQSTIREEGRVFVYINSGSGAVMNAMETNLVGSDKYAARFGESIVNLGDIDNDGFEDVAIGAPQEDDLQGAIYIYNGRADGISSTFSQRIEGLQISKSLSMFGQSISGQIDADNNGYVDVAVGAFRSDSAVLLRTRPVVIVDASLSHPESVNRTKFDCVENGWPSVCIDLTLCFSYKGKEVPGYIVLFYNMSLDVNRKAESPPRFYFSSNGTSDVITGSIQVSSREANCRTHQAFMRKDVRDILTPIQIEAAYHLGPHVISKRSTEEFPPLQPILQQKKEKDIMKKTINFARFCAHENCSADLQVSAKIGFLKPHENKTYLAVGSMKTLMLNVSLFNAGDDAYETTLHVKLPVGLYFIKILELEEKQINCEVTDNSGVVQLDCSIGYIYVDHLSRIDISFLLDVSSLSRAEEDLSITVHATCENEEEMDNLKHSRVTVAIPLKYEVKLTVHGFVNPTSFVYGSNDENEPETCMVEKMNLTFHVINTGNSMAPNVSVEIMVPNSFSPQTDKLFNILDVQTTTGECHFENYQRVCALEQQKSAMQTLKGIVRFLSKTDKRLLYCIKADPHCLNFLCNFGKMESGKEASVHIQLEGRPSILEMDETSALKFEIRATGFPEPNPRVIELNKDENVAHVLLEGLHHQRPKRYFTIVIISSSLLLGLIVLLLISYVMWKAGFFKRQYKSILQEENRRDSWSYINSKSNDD
# Sequence (P05556 21-798): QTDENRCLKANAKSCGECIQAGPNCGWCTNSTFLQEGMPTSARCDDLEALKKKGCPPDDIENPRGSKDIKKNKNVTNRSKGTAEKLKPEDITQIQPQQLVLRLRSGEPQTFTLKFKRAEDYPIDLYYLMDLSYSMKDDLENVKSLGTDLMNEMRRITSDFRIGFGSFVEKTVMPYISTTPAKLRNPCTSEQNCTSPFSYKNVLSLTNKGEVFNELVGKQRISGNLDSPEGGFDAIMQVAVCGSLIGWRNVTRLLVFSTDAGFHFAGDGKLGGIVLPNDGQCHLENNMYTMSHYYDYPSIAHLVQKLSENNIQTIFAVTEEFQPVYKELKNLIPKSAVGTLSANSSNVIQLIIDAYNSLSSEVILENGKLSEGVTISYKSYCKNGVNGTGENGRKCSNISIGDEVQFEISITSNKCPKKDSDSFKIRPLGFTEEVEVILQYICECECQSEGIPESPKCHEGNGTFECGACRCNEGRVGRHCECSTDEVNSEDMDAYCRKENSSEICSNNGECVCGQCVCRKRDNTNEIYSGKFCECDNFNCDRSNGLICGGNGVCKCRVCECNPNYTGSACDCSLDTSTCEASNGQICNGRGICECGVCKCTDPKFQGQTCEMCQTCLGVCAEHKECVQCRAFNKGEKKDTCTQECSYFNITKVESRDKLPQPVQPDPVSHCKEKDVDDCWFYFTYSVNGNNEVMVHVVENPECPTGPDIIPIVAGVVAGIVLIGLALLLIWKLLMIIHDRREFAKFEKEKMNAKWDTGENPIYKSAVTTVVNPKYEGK
# protocolDescription: In vitro binding inhibition of 51Cr-labeled Jurkat cells to solid phase-bound CS-1 compound (SEQ ID NO:1)
# Type: cell-based
# Parameters: inflammatory cells that contain the VLA-4 receptor [Jurkat cells; host or cells: Jurkat (human T lymphoblastic line)
Square brackets hold non-standard residues; d marks the D form. Peptide text beside a SMILES is read from it. * marks the point of attachment. X19 = O=C(Cc1ccc(Br)cc1)*; Piperidide = C1CCN(*)CC1
Quick rule for you: Relative Potency at 2 or higher means rule met, lower means rule not met.

Quick check, Relative Potency >= 2? CC(C)C[C@H](N)C(=O)N[C@@H](CC(=O)O)C(=O)N[C@@H](Cc1ccccc1)C(=O)N1CCCCC1 [1047.09] (H-Leu-Asp-Phe-Piperidide)
rule not met

For this molecule, is measured Relative Potency 2 or higher? CC[C@@H](C)[C@@H](N)C(=O)N[C@@H](CC(C)C)C(=O)N[C@@H](CC(=O)O)C(=O)N[C@H](C(=O)N1CCC[C@@H]1C(N)=O)C(C)C
rule not met

Exam item: decide whether the reported Relative Potency for CC(C)CN1C(=O)C(NC(=O)N[C@@H](CC(=O)O)C(=O)N[C@@H](Cc2ccccc2)C(=O)N2CCC[C@@H]2C(N)=O)Cc2ccccc21 (stereo partly drawn) is at least 2.
rule not met

Is reported Relative Potency greater than or equal to 2 here: CC(C)C[C@H](NC(=O)Cc1ccc(Br)cc1)C(=O)N[C@@H](CC(=O)O)C(=O)N[C@@H](Cc1ccccc1)C(=O)N1CCC[C@@H]1C(N)=O [951.08] (X19-LDF[dP]-NH2)
rule met

State whether the measured Relative Potency reaches 2, counting equality as reaching it, for CCC(C)CC(=O)N[C@@H](CC(C)C)C(=O)N[C@@H](CC(=O)O)C(=O)N[C@H](C(=O)N1CCC[C@@H]1C(N)=O)C(C)C (stereo partly drawn)
rule met
